test_description: growth inhibition of GSK3B-pretreated HCT116 cells – cell-based, CellTiter-Glo, 0.2 to 20 µM (AID 1117336)
setup_conditions: HCT116 viability after GSK3B inhibitor, at 20 µM
Active and inactive are the calls of the source.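 Rule for the calls: active = compounds lowering colon cancer cell viability after pretreatment blocking the GSK3B kinase; inactive = the rest.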
Bench note: report the call from active, inactive

In: Given Clc1ccc(C(c2ccc(Cl)cc2)C(Cl)(Cl)Cl)cc1 , state the outcome it received in this test.
Out: active

In: Given N[C@@H](Cc1ccc(N(CCCl)CCCl)cc1)C(=O)O , state the outcome it received in this test.
Out: active

In: Given O=C1c2ccccc2C(=O)c2ccccc21 , state the outcome it received in this test.
Out: inactive

In: Given c1ccc2c(c1)OCC(C1=NCCN1)O2 (centres undefined) , state the outcome it received in this test.
Out: inactive

In: Given O=C(CCl)c1ccc(Cl)cc1Cl , state the outcome it received in this test.
Out: active

In: Given Cc1ncc(CNC(=O)N(CCCl)N=O)c(N)n1 , state the outcome it received in this test.
Out: inactive

In: Given O=C(O)C(Cl)Cl , state the outcome it received in this test.
Out: inactive

In: Given Cc1cc(O)ccc1Cl , state the outcome it received in this test.
Out: inactive

In: Given CCC1(c2ccccc2)C(=O)N(COC)C(=O)N(COC)C1=O , state the outcome it received in this test.
Out: active

In: Given CCCN1CCC[C@@H]2Cc3nc(N)ncc3C[C@H]21 , state the outcome it received in this test.
Out: inactive

In: Given O=C(CBr)Nc1ccc(Cl)cc1C(=O)c1ccccc1F , state the outcome it received in this test.
Out: active

In: Given CC(C)(C)c1cc(O)ccc1O , state the outcome it received in this test.
Out: inactive

In: Given NCCc1ccc(O)cc1 , state the outcome it received in this test.
Out: inactive

In: Given C[C@]12CC[C@H]3[C@@H](CC[C@@]45O[C@H]4C(O)=C(C#N)C[C@]35C)[C@H]1CC[C@H]2O , state the outcome it received in this test.
Out: inactive

====

test_description: SU-DIPG-XXV glioma cell viability, MIPE5.0 library, qHTS (AID 1347068);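 for IC50: cells exposed to compound for 48 hours before viability readout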
Inconclusive results are not listed. Activity calls are given as the source filed them. The limit is not given here; nearly all actives have IC50 up to about 30 µM.
Bench note: report the call from 1 (active), 0 (inactive)

In: Given CN1C(=O)COc2c(C(=O)NC3CN4CCC3CC4)cc(Cl)cc21 (stereo not drawn) , state the outcome it received in this test.
Out: 0

In: Given CC(C)[C@]12O[C@H]1[C@@H]1O[C@@]13[C@@]1(C)CCC4=C(COC4=O)[C@@H]1C[C@@H]1O[C@@]13C2=O , state the outcome it received in this test.
Out: 1

In: Given Cn1cc(C2=C(c3cn(C4CCN(Cc5ccccn5)CC4)c4ccccc34)C(=O)NC2=O)c2ccccc21 , state the outcome it received in this test.
Out: 0

====

Task for the reader: assign each of the following molecules its reported remaining activity.
System: Aerobactin synthetase IucA (Klebsiella pneumoniae, hypervirulent)
test_description: IucA enzyme inhibition, biochemical, LOPAC library, absorbance readout (AID 1346212);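 note: 100% = no compound wells and 0% = no enzyme wells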
setup_conditions: IucA enzyme assay, absorbance (OD) readout; active compounds read low; concentration not given here
Field: numeric (%). Do not append units.

In: Dear colleague, I am looking for the recorded remaining activity of the following molecule: CC(=O)c1ccc(S(=O)(=O)NC(=O)NC2CCCCC2)cc1
Out: 127

In: Dear colleague, I am looking for the recorded remaining activity of the following molecule: NC(=O)c1ccc2[nH]ccc2c1
Out: 89.8

In: Dear colleague, I am looking for the recorded remaining activity of the following molecule: O=c1ccn([C@@H]2O[C@H](COP(=O)(O)OP(=O)(O)O)[C@@H](O)[C@H]2O)c(=O)[nH]1
Out: 106

In: Dear colleague, I am looking for the recorded remaining activity of the following molecule: COc1ccc(NC(=O)c2ccc(-c3ccc(-c4noc(C)n4)cc3C)cc2)cc1N1CCN(C)CC1
Out: 112

In: Dear colleague, I am looking for the recorded remaining activity of the following molecule: O=C1CCc2cc(OCCCCc3nnnn3C3CCCCC3)ccc2N1
Out: 113

In: Dear colleague, I am looking for the recorded remaining activity of the following molecule: CCCCS(=N)(=O)CC[C@H](N)C(=O)O (some centres not stated)
Out: 92.2

In: Dear colleague, I am looking for the recorded remaining activity of the following molecule: Nc1ncnc2c1ncn2[C@@H]1O[C@H](COP(=O)(O)OP(=O)(O)OP(=O)(O)OP(=O)(O)OC[C@@H]2O[C@H](n3cnc4c(N)ncnc43)C(O)[C@@H]2O)[C@H](O)C1O (some centres not stated)
Out: 91.8
